B1: HHH_rd1_0493 (parent)
chain: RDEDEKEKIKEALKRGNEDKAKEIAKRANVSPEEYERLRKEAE

Variants of: B1
measurement_protocol: folding stability dG (cDNA display proteolysis); higher = more stable
experimental_conditions: PBS, room temperature
endpoint_name: folding stability dG (kcal/mol)
Answer with a number only, understood to be in kcal/mol.

Can you look up the measured folding stability dG of RDEDEKEKIKEALKRYNEDKAKEIAKRANVSPEEYERLRKEAE [G16Y] for me?
0.998

How about this variant: RDEDEKEKIKEALKRGNEDKAKEIAKRANVSPEEYERLIKEAE [R39I]
2.09

Try RDEDEKEKIKEALKRGNEDKAKEIAKRANVSPWEYERLRKEAE [E33W] next.
2.06

// query: RDEDEKEKIKEALKRGNEDKAKEIAKRANVSPEENERLRKEAE [Y35N]
-0.057

Please answer likewise for RDEDEKEKIKEALKRGNEDKAKEIAKRANVSPEEYERTRKEAE [L38T]
0.593

Note, next up: RDEDEKEKIKLALKRGNEDKAKEIAKRANVSPEEYERLRKEAE [E11L]
2.71

Another variant to check: LDEDEKEKIKEALKRGNEDKAKEIAKRANVSPEEYERLRKEAE [R1L]
3.08

Queued: RDEDEKEKIKEALKRGVEDKAKEIAKRANVSPEEYERLRKEAE [N17V]
1.45

Entry RDEDEKEKIKEALKRGNEDKAKEIAKRANVSPEEYEHLRKEAE [R37H] please
2.12

What about RDEDEKEKIKEALKRGNEDKAKEIAKRANVSPEEYERLPKEAE [R39P] ?
0.097

And for RDEDEKEKIKEALVRGNEDKAKEIAKRANVSPEEYERLRKEAE [K14V] ?
2.33

Next up: RDEDEKEKIKEALKRGNEDKAKEIAKRANVSPEEYKRLRKEAE [E36K]
1.49

Can you handle RDEDEKEKIKEALKRHNEDKAKEIAKRANVSPEEYERLRKEAE [G16H] next?
2.04

Another variant to check: RDEDEKEKIKEALKRGNEDKAKEIAKRANVSPEWYERLRKEAE [E34W]
1.1

Now this one: RHEDEKEKIKEALKRGNEDKAKEIAKRANVSPEEYERLRKEAE [D2H]
3.05

Another variant to look at: RDEDEKEWIKEALKRGNEDKAKEIAKRANVSPEEYERLRKEAE [K8W]
2.44

Repeat for the following variant: GDEDEKEKIKEALKRGNEDKAKEIAKRANVSPEEYERLRKEAE [R1G]
3.1

Also, RDEDEKEKIKEALKRGNEDKNKEIAKRANVSPEEYERLRKEAE [A21N] please.
0.483

Proceed to RDEDQKEKIKEALKRGNEDKAKEIAKRANVSPEEYERLRKEAE [E5Q]
2.87

// next record RDEDEKEKIKEALKRGNEDKHKEIAKRANVSPEEYERLRKEAE [A21H]
0.313

One more variant: RDEDEKEKIKEAIKRGNEDKAKEIAKRANVSPEEYERLRKEAE [L13I]
2.84

Would you mind doing RDRDEKEKIKEALKRGNEDKAKEIAKRANVSPEEYERLRKEAE [E3R] as well?
2.93

Next record, please: RDEDEKEKIKEALKRGNEDKAKRIAKRANVSPEEYERLRKEAE [E23R]
2.39

// repeat for RDEDEKETIKEALKRGNEDKAKEIAKRANVSPEEYERLRKEAE [K8T] and report
2.27

Let us now turn to RDEDEKEGIKEALKRGNEDKAKEIAKRANVSPEEYERLRKEAE [K8G]
2.34

Let us now turn to RDEDEKEKIKEAPKRGNEDKAKEIAKRANVSPEEYERLRKEAE [L13P]
0.435

Ok, now RDEDEKEKIKEALKRGNEDKAKEIAKRANVSPEEYERLRKSAE [E41S]
2.05

Let us now turn to RDEAEKEKIKEALKRGNEDKAKEIAKRANVSPEEYERLRKEAE [D4A]
2.83

Next variant up: RDEDEKEKIKEALKRGNEDKAKEIADRANVSPEEYERLRKEAE [K26D]
2.71

What do you have for RDEDENEKIKEALKRGNEDKAKEIAKRANVSPEEYERLRKEAE [K6N] ?
2.53

Check RDEDEKEKIKEALKRGNEDKAKEIAKRANVSPEEYERLRFEAE [K40F] too.
2.8

Another variant to check: RDEDEKEKIKEALGRGNEDKAKEIAKRANVSPEEYERLRKEAE [K14G]
1.98

Next variant up: RDEDEKEKIKEALKRGNEDKAKEIAKRANVSPEFYERLRKEAE [E34F]
0.766

Input RDEDEKEKIKEALKRGNEDYAKEIAKRANVSPEEYERLRKEAE [K20Y]
3.13

Similarly, RDEDEKEKIKEALKRGNEDKAIEIAKRANVSPEEYERLRKEAE [K22I] ?
2.8

Okay, and RDEDEKEKIKEALKRGNEDKAKEIAKRANVSPEEYERNRKEAE [L38N] ?
0.332

How about this variant: RDEDEKENIKEALKRGNEDKAKEIAKRANVSPEEYERLRKEAE [K8N]
2.55

Next entry: RDEDEKEKIKEALKRGNEDKAKEIAKRANWSPEEYERLRKEAE [V30W]
1.73

# repeat for RDEDEKEKIKEALKRGNEDKAKEIAKRANVSPESYERLRKEAE [E34S]
1.14

Let us now turn to RDEDEEEKIKEALKRGNEDKAKEIAKRANVSPEEYERLRKEAE [K6E]
2.27

Quick one: RDEDEKEKITEALKRGNEDKAKEIAKRANVSPEEYERLRKEAE [K10T]
1.7

Now give it for RDEDEKEKIKEALKRGNEDKAKEIAKRANVSPEEYETLRKEAE [R37T] too.
2.22

RDEDEKEKIKEALKRGNEDKAKEIAKRANVSPEEYERLRKEVE [A42V] ?
3.33

And the next one, RDEDEKEKIKEALKRGNEDKAKEIAKRANVSPCEYERLRKEAE [E33C] ?
2.29

Same thing, different variant: RDEDEKEKIKEALKRGNEDKAKEIAKRANVSPEEGERLRKEAE [Y35G]
-0.05

Another variant to look at: EDEDEKEKIKEALKRGNEDKAKEIAKRANVSPEEYERLRKEAE [R1E]
3.02

Same question for RDEDEKEKIKEALKRGNEDMAKEIAKRANVSPEEYERLRKEAE [K20M] please.
3.37

Do the same for RDHDEKEKIKEALKRGNEDKAKEIAKRANVSPEEYERLRKEAE [E3H] please
3

Now the variant RDYDEKEKIKEALKRGNEDKAKEIAKRANVSPEEYERLRKEAE [E3Y]
3.01

Query RDEDEKEKIKEALKRGNEDKAKEIAKRANVSPEEYELLRKEAE [R37L] next
2.42

And RDEDEKEKIKEALKRGNEDKAKEIAKRANVSGEEYERLRKEAE [P32G] ?
2.37

What do you have for RDEDEKEKIKEALKRGNEDKAKEIAKQANVSPEEYERLRKEAE [R27Q] ?
2.83

Item: RDEDEKEKIKEALKRGNEDKAKEIAKRANVSTEEYERLRKEAE [P32T]
2.61

Entry to check: RDEDEKEKIKEALKRGNEDDAKEIAKRANVSPEEYERLRKEAE [K20D]
2.85

What do you have for RDEDEKLKIKEALKRGNEDKAKEIAKRANVSPEEYERLRKEAE [E7L] ?
3.09

Please give the result for RDEDEKEKIKEALKRGNEDKAKFIAKRANVSPEEYERLRKEAE [E23F] too.
1.7

Can you handle RDEDEKEKIKEALKRGNEDKAKEIAKRANVSPEEYNRLRKEAE [E36N] next?
2.19

// same read-out, input: RDEDEKEKIKEALKRGNEDKAKEIWKRANVSPEEYERLRKEAE [A25W]
-0.051

Request: RDEDEKEKIKEALKRGNEDKAFEIAKRANVSPEEYERLRKEAE [K22F]
2.31

Queued: RDEDEKEKIKEAWKRGNEDKAKEIAKRANVSPEEYERLRKEAE [L13W]
1.14

Next variant: RDEDEKEKIKEALKRGNEDKAKEIAHRANVSPEEYERLRKEAE [K26H]
2.74

Ok, now RDEDEKEKIKEALKRGNEDKAKEIHKRANVSPEEYERLRKEAE [A25H]
0.547

Do the same for FDEDEKEKIKEALKRGNEDKAKEIAKRANVSPEEYERLRKEAE [R1F] please
3.01

Same for RDEDEKEKIKEALKRGNEDKAKEIAKRARVSPEEYERLRKEAE [N29R]
2.55

# repeat for RDEDEKEKIKEALKRGNEDKAKEIGKRANVSPEEYERLRKEAE [A25G]
1.3

Also check RDEDEKEKIKEDLKRGNEDKAKEIAKRANVSPEEYERLRKEAE [A12D]
0.746

Continue with RDTDEKEKIKEALKRGNEDKAKEIAKRANVSPEEYERLRKEAE [E3T]
2.94

Next variant up: RDEDEKEKIKEALKRGNEDKAKEIAKRANVSPEEYVRLRKEAE [E36V]
1.5

Same for ADEDEKEKIKEALKRGNEDKAKEIAKRANVSPEEYERLRKEAE [R1A]
3.23

Same question, REEDEKEKIKEALKRGNEDKAKEIAKRANVSPEEYERLRKEAE [D2E] this time
3.11
